- assayedTarget: UniProt P51843
- Sequence (P51843 207-470 limits assumed): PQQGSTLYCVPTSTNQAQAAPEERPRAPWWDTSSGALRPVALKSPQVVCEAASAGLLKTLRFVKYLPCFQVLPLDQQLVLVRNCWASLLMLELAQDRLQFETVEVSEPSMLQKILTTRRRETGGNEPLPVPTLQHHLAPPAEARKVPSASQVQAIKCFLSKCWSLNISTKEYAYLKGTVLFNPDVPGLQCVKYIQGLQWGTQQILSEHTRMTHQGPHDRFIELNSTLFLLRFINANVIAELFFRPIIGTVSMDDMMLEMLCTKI
- methodNotes: relief of Gal4-DAX1 luciferase repression – cell-based, luminescence, HEK293, powder samples, assay provider, dose response (AID 624302)
- recordedConditions: luciferase reporter luminescence, at 100 µM, stronger effect = higher value
Assign relative luminescence ratio to each entry below.
Answer with the value's number alone.

// query Recall the recorded relative luminescence ratio for O=C(Nc1ccc2c(c1)OCO2)c1ccc(C2SCC(=O)N2Cc2ccccc2)cc1 (stereo unspecified) with UniProt P51843 and state it.
// result 0.01

// query Recall the recorded relative luminescence ratio for "O=C(Nc1ccc2c(c1)OCO2)c1ccc2ccccc2c1" with UniProt P51843 and state it.
// result 0.02

// query Recall the recorded relative luminescence ratio for COc1ccc(OC)c(C(C)NC(=O)c2ccc(C)cc2)c1 (stereo unspecified) with UniProt P51843 and state it.
// result 0.38

// query Recall the recorded relative luminescence ratio for COc1ccc(OC)c(C(C)NC(=O)c2ccccc2C)c1 (stereo unspecified) with UniProt P51843 and state it.
// result 0.42

// query Recall the recorded relative luminescence ratio for COc1ccc(OC)c(C(C)NC(=O)c2ccccc2Cl)c1 (stereo unspecified) with UniProt P51843 and state it.
// result 0.39

// query Recall the recorded relative luminescence ratio for COc1ccc(OC)c(C(C)NC(=O)c2ccccc2)c1 (stereo unspecified) with UniProt P51843 and state it.
// result 0.46
